Hey, just so you know, these numbers are from PubChem BioAssay AID2797.

# Subject of test: Vasopressin V1a receptor (Homo sapiens) (UniProt P37288)
# Sequence (P37288 whole entry, looked up): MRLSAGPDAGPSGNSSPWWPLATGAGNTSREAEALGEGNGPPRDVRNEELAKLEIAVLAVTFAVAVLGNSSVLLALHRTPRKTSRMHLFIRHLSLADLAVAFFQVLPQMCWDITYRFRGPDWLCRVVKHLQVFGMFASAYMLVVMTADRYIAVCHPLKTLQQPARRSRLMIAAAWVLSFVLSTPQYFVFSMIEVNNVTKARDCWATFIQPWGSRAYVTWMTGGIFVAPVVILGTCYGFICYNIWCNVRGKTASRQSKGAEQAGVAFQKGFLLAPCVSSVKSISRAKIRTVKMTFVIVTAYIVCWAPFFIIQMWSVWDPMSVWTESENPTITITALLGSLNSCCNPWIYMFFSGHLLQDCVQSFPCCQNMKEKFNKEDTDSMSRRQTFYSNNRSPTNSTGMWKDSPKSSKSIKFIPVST
# Measurement description: V1R activation via calcium rise – fluorescence, CHO-V1R cells, counter-screen for OXTR agonist project, primary screen (AID 2797);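 also: signal is peak over basal fluorescence ratio across a 100 second FLIPR read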
# Test settings: Fluo-8 calcium fluorescence, agonist mode, at 3 µM, active compounds read high, 0% DMSO, 100% 3 nM vasopressin
Screen size: about 320,000 compounds; about 820 (0.26%) were called active. The full list was thinned out, with actives kept by preference.
Parameter: activation. Scope: all listed entries.

Sample records with activation:
{"columns": ["Compound", "activation"],
 "data": [
  ["Cc1noc(C)c1NC(=O)Nc1cccc2c1O[C@H](CN(C)C(=O)Nc1ccccc1)[C@@H](C)CN([C@H](C)CO)C2=O", "0.98% (inactive)"],
  ["Cc1cc(C)c(/C=C2\\C(=O)Nc3ccccc32)[nH]1", "23.6% (active)"],
  ["C=CCSc1nc2c(c(=O)[nH]c(=O)n2C)n1Cc1ccccc1", "0.69% (inactive)"],
  ["Cc1cccc(C(=O)OC(C)CN2CCCC2)c1 (stereo unspecified)", "-0.62% (inactive)"]
]}

# input Return reported activation; argument: COc1cc(OC)cc(C(=O)NCC(=O)OCC(=O)NC(C)CCc2ccccc2)c1 (stereo unspecified)
# output -0.08% (inactive)

# input Return reported activation; argument: "O=C(CCCN=C1NS(=O)(=O)c2ccccc21)OCC(=O)c1ccc(F)c(F)c1"
# output 22.6% (active)

# input Return reported activation; argument: CCC(C)C(=O)Nc1cc([N+](=O)[O-])ccc1Cl (stereo unspecified)
# output -0.34% (inactive)

----------
Parameter: activation. Scope: all listed entries.
# Subject of test: Vasopressin V1a receptor (Homo sapiens) (UniProt P37288)
# Measurement description: V1R activation via calcium rise – fluorescence, CHO-V1R cells, counter-screen for OXTR agonist project, primary screen (AID 2797);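 also: signal is peak over basal fluorescence ratio across a 100 second FLIPR read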
# Test settings: Fluo-8 calcium fluorescence, agonist mode, at 3 µM, active compounds read high, 0% DMSO, 100% 3 nM vasopressin
About 820 (0.26%) of roughly 320,000 compounds were called active. The full list was thinned out, with actives kept by preference.
Entry rule: numbers only, all in %.

# input Return reported activation; argument: C=CCOc1cccc(C2C(C(=O)c3ccc(C)o3)=C(O)C(=O)N2c2nnc(C)s2)c1 (centres undefined)
# output 78.1

# input Return reported activation; argument: Cc1ccc(C(=O)NNC(=O)C(C)Oc2ccc3ccccc3c2)o1 (centres undefined)
# output 0.2

# input Return reported activation; argument: "Cc1cc(OCc2ccc(C(=O)Nc3ccc(C(=O)O)cc3)o2)ccc1Cl"
# output 2.11

# input Return reported activation; argument: "O=C(N1CCCC1)C12CC3CC(C1)CC(C(=O)N1CCCC1)(C3)C2"
# output -0.17

# input Return reported activation; argument: CC1CN(C(=O)c2ccccc2NS(=O)(=O)c2cccc([N+](=O)[O-])c2)CC(C)O1 (centres undefined)
# output 1.41

# input Return reported activation; argument: "Cc1ccc(C)c(CN2CCC(CNC(=O)Nc3ccc(C)c(F)c3)CC2)c1"
# output 4.31

# input Return reported activation; argument: "O=C(COc1ccc(Cl)cc1)NC(=S)Nc1ccccc1N1CCOCC1"
# output 3.48

# input Return reported activation; argument: "N#CC1(NC(=O)COC(=O)CCN=C2NS(=O)(=O)c3ccccc32)CCCCC1"
# output 0.74

# input Return reported activation; argument: CCC(Oc1ccccc1C)C(=O)Nc1ccc(S(=O)(=O)Nc2cc(C)on2)cc1 (centres undefined)
# output -0.02

# input Return reported activation; argument: "O=C1Nc2ccccc2/C1=C/c1ccnc2ccccc12"
# output 3.16

# input Return reported activation; argument: Cc1nc(-c2ccc(Cl)cc2)sc1C1(C)CC(c2ccccc2F)=NO1 (centres undefined)
# output 0.6

# input Return reported activation; argument: "CCOc1ccc(NC(=O)CSc2nncn2C)cc1"
# output 0.81
